# key: entry, value: molar heat capacity at constant pressure
Assay: molar heat capacity at constant pressure
Settings: 295.15 K; 101.33 kPa; Liquid; Large sample (1 g) DSC
The answer is to be given in J/K/mol; state only the numeric part.

>  <COMPOUND>
CC[n+]1cccc(C)c1.O=S(=O)([N-]S(=O)(=O)C(F)(F)F)C(F)(F)F

>  <REPORTED>
487

$$$$
>  <COMPOUND>
CCCCn1cc[n+](C)c1.N#CN=C=[N-] [1-butyl-3-methylimidazolium dicyanamide]

>  <REPORTED>
374

$$$$
>  <COMPOUND>
CCCC[n+]1cccc(C)c1.O=S(=O)([N-]S(=O)(=O)C(F)(F)F)C(F)(F)F

>  <REPORTED>
544

$$$$

Then there is this compound:
Item: `CCC[n+]1cccc(C)c1.O=S(=O)([N-]S(=O)(=O)C(F)(F)F)C(F)(F)F` | molar heat capacity at constant pressure: 513

###

Experiment: molar heat capacity at constant pressure
Conditions: 306.15 K; 101.33 kPa; Liquid; Large sample (1 g) DSC
MEASUREMENT NAME: molar heat capacity at constant pressure (J/K/mol)
Give the value, in units of J/K/mol, as a plain number.

Look over these answered cases.
>  <COMPOUND>
CCCCn1cc[n+](C)c1.N#CN=C=[N-] [1-butyl-3-methylimidazolium dicyanamide]

>  <REPORTED>
380

$$$$
>  <COMPOUND>
CCC[n+]1cccc(C)c1.O=S(=O)([N-]S(=O)(=O)C(F)(F)F)C(F)(F)F

>  <REPORTED>
525

$$$$
>  <COMPOUND>
CC[n+]1cccc(C)c1.O=S(=O)([N-]S(=O)(=O)C(F)(F)F)C(F)(F)F

>  <REPORTED>
500

$$$$

Alright, here's another compound for you.
Field molar heat capacity at constant pressure (entry `CCCC[n+]1cccc(C)c1.O=S(=O)([N-]S(=O)(=O)C(F)(F)F)C(F)(F)F` ) reads 557

###

Assay: molar heat capacity at constant pressure
Settings: 331.15 K; 101.33 kPa; Liquid; Large sample (1 g) DSC
MEASUREMENT NAME: molar heat capacity at constant pressure (J/K/mol)
// note: answer is a bare numeric in J/K/mol

Solved cases (4 shown):
>  <COMPOUND>
CCCCn1cc[n+](C)c1.N#CN=C=[N-] [1-butyl-3-methylimidazolium dicyanamide]

>  <molar heat capacity at constant pressure [J/K/mol]>
391

$$$$
>  <COMPOUND>
CC[n+]1cccc(C)c1.O=S(=O)([N-]S(=O)(=O)C(F)(F)F)C(F)(F)F

>  <molar heat capacity at constant pressure [J/K/mol]>
520

$$$$
>  <COMPOUND>
CCCCn1cc[n+](C)c1.O=S(=O)([O-])C(F)(F)F [1-butyl-3-methylimidazolium trifluoromethanesulfonate]

>  <molar heat capacity at constant pressure [J/K/mol]>
464

$$$$
>  <COMPOUND>
CCCC[n+]1cccc(C)c1.O=S(=O)([N-]S(=O)(=O)C(F)(F)F)C(F)(F)F

>  <molar heat capacity at constant pressure [J/K/mol]>
580

$$$$

Query `CCC[n+]1cccc(C)c1.O=S(=O)([N-]S(=O)(=O)C(F)(F)F)C(F)(F)F` yields molar heat capacity at constant pressure of 547

Summary for this compound, CCCC[n+]1cccc(C)c1.O=S(=O)([O-])C(F)(F)F [1-butyl-3-methylpyridinium trifluoromethanesulfonate] : molar heat capacity at constant pressure is 472

###

Entries and their molar heat capacity at constant pressure
Experiment: molar heat capacity at constant pressure
Details: 294.15 K; 101.33 kPa; Liquid; Large sample (1 g) DSC
Answer in J/K/mol, number only, no unit symbol.

molar heat capacity at constant pressure reading for `CC[n+]1cccc(C)c1.O=S(=O)([N-]S(=O)(=O)C(F)(F)F)C(F)(F)F` : 486

Consider `CCC[n+]1cccc(C)c1.O=S(=O)([N-]S(=O)(=O)C(F)(F)F)C(F)(F)F` . Its measured molar heat capacity at constant pressure is 511

Documented molar heat capacity at constant pressure of CCCCn1cc[n+](C)c1.N#CN=C=[N-] [1-butyl-3-methylimidazolium dicyanamide] : 373

The measured molar heat capacity at constant pressure associated with `CCCC[n+]1cccc(C)c1.O=S(=O)([N-]S(=O)(=O)C(F)(F)F)C(F)(F)F` reads 542

###

Assay: molar heat capacity at constant pressure
Settings: 329.15 K; 101.33 kPa; Liquid; Large sample (1 g) DSC
Numbers after ± are expanded uncertainties.
Listing of recorded molar heat capacity at constant pressure by entry.

Field molar heat capacity at constant pressure (entry `CCCC[n+]1cccc(C)c1.O=S(=O)([N-]S(=O)(=O)C(F)(F)F)C(F)(F)F` ) reads 578 ± 58 J/K/mol

// field: molar heat capacity at constant pressure; key: `CCC[n+]1cccc(C)c1.O=S(=O)([N-]S(=O)(=O)C(F)(F)F)C(F)(F)F` ; value = 545 ± 55 J/K/mol

Quick note, molar heat capacity at constant pressure for CCCCn1cc[n+](C)c1.N#CN=C=[N-] [1-butyl-3-methylimidazolium dicyanamide] landed at 390 ± 39 J/K/mol

molar heat capacity at constant pressure measured on `CC[n+]1cccc(C)c1.O=S(=O)([N-]S(=O)(=O)C(F)(F)F)C(F)(F)F` = 519 ± 52 J/K/mol

CCCC[n+]1cccc(C)c1.O=S(=O)([O-])C(F)(F)F [1-butyl-3-methylpyridinium trifluoromethanesulfonate] has a reported molar heat capacity at constant pressure of 469 ± 47 J/K/mol

molar heat capacity at constant pressure reported for this compound CCCCn1cc[n+](C)c1.O=S(=O)([O-])C(F)(F)F [1-butyl-3-methylimidazolium trifluoromethanesulfonate] : 462 ± 47 J/K/mol

###

Listed below: molar heat capacity at constant pressure values for each entry.
Assay: molar heat capacity at constant pressure
Conditions: 321.15 K; 101.33 kPa; Liquid; Large sample (1 g) DSC
Response body: numeric value in J/K/mol, unit text excluded.

// solved cases for molar heat capacity at constant pressure follow
>  <COMPOUND>
CCCC[n+]1cccc(C)c1.O=S(=O)([N-]S(=O)(=O)C(F)(F)F)C(F)(F)F

>  <MEASUREMENT NAME>
molar heat capacity at constant pressure

>  <REPORTED>
570

$$$$
>  <COMPOUND>
CCC[n+]1cccc(C)c1.O=S(=O)([N-]S(=O)(=O)C(F)(F)F)C(F)(F)F

>  <MEASUREMENT NAME>
molar heat capacity at constant pressure

>  <REPORTED>
538

$$$$
>  <COMPOUND>
CC[n+]1cccc(C)c1.O=S(=O)([N-]S(=O)(=O)C(F)(F)F)C(F)(F)F

>  <MEASUREMENT NAME>
molar heat capacity at constant pressure

>  <REPORTED>
512

$$$$

Now examine the next entry.
Just so you know, measured molar heat capacity at constant pressure for CCCCn1cc[n+](C)c1.N#CN=C=[N-] [1-butyl-3-methylimidazolium dicyanamide] came out at 386

###

Assay: molar heat capacity at constant pressure
Settings: 318.15 K; 101.33 kPa; Liquid; Large sample (1 g) DSC
Numbers after ± are expanded uncertainties.
MEASUREMENT NAME: molar heat capacity at constant pressure

>  <COMPOUND>
CCCC[n+]1cccc(C)c1.O=S(=O)([N-]S(=O)(=O)C(F)(F)F)C(F)(F)F

>  <molar heat capacity at constant pressure>
568 ± 57 J/K/mol

$$$$
>  <COMPOUND>
CCC[n+]1cccc(C)c1.O=S(=O)([N-]S(=O)(=O)C(F)(F)F)C(F)(F)F

>  <molar heat capacity at constant pressure>
536 ± 54 J/K/mol

$$$$
>  <COMPOUND>
CCCCn1cc[n+](C)c1.N#CN=C=[N-] [1-butyl-3-methylimidazolium dicyanamide]

>  <molar heat capacity at constant pressure>
385 ± 39 J/K/mol

$$$$

Now look at this one.
What the record says about `CC[n+]1cccc(C)c1.O=S(=O)([N-]S(=O)(=O)C(F)(F)F)C(F)(F)F` : molar heat capacity at constant pressure is 510 ± 52 J/K/mol

###

Parameter molar heat capacity at constant pressure: see the listing below.
Assay: molar heat capacity at constant pressure
Settings: 309.15 K; 101.33 kPa; Liquid; Large sample (1 g) DSC
Report as a plain number; the unit J/K/mol is understood.

Example results:
>  <COMPOUND>
CCCCn1cc[n+](C)c1.N#CN=C=[N-] [1-butyl-3-methylimidazolium dicyanamide]

>  <U>
J/K/mol

>  <REPORTED>
382

$$$$
>  <COMPOUND>
CC[n+]1cccc(C)c1.O=S(=O)([N-]S(=O)(=O)C(F)(F)F)C(F)(F)F

>  <U>
J/K/mol

>  <REPORTED>
502

$$$$

Entry `CCCC[n+]1cccc(C)c1.O=S(=O)([N-]S(=O)(=O)C(F)(F)F)C(F)(F)F` , molar heat capacity at constant pressure reported as 560

molar heat capacity at constant pressure recorded for this compound, `CCC[n+]1cccc(C)c1.O=S(=O)([N-]S(=O)(=O)C(F)(F)F)C(F)(F)F` , is 528
